Data origin: paper PMC7155171

Tested on: P. falciparum Dd2 (PfLuc) line expressing firefly luciferase, asexual blood stage
Experiment: microbe, parasite or virus in culture
Assay type: cell-based, Plasmodium falciparum
Conditions: Plasmodium falciparum, DD2, read-out: CDD P. falciparum Luciferase ABS 11-pt Reconfirmation Dose Response (48hr): IC50 (μM); 11-pt dose response, 48hr
Listing: IC50 of selected molecules
Just the number please, in µM, no unit attached.

Tell me measured IC50 for "COc1cccc(CN(C)Cc2[nH]c3ccccc3c2C)c1O" please.
1.95

Tell me measured IC50 for CC(NCCN1CCC(N(C)C)CC1)c1ccc(Cl)s1 (centres unmarked) please.
4.33

Tell me measured IC50 for Clc1ccc(-c2ccc(C3CNCCO3)nc2)cc1 (centres unmarked) please.
1.38
